Molecular target: Stb5 (UniProt P38699)
Sequence: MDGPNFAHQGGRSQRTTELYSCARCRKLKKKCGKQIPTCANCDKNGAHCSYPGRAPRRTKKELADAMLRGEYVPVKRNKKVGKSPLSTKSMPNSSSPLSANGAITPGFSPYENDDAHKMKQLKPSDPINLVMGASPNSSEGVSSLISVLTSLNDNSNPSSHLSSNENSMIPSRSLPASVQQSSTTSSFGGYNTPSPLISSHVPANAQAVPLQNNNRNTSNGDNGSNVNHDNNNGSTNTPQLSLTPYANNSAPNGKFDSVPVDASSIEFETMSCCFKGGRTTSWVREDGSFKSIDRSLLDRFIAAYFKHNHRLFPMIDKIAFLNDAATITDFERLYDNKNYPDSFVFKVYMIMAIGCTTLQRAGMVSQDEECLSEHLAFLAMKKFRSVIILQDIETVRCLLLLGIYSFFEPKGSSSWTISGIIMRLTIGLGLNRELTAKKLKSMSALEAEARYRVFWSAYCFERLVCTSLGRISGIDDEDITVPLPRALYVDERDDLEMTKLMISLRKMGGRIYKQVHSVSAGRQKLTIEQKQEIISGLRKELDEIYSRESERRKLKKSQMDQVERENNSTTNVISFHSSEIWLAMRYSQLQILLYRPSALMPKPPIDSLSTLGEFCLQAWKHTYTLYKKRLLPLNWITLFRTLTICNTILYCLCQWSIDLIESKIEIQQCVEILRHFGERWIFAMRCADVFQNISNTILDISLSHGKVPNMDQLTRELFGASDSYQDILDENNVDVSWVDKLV
Assay: PBM E-score (8-mer binding enrichment) (E-score (-0.5 to 0.5)); higher = stronger / more preferred TF binding
Details: protein concentration: 200 nM; construct: GST-full length
Whole data set: some 33,000 sequences, median “E-score (-0.5 to 0.5)” near -0.054, cut for the highest 2% near 0.35. Only a selection was taken, and the highest values are over-represented in it overall.
Each item that follows carries a reported PBM E-score.

{"seq": "AAGCCCCG", "test-system": "Stb5 (UniProt P38699)", "PBM E-score": 0.431}
{"seq": "AAACTCAC", "test-system": "Stb5 (UniProt P38699)", "PBM E-score": -0.172}
{"seq": "CCGCCGTA", "test-system": "Stb5 (UniProt P38699)", "PBM E-score": 0.381}
{"seq": "ACCTTTGC", "test-system": "Stb5 (UniProt P38699)", "PBM E-score": -0.0619}
{"seq": "ATTCCCGC", "test-system": "Stb5 (UniProt P38699)", "PBM E-score": 0.4}
{"seq": "TAGCCCGA", "test-system": "Stb5 (UniProt P38699)", "PBM E-score": 0.171}
{"seq": "CGGGCCTC", "test-system": "Stb5 (UniProt P38699)", "PBM E-score": 0.108}
{"seq": "CCGACAAG", "test-system": "Stb5 (UniProt P38699)", "PBM E-score": 0.266}
{"seq": "GGTGATAA", "test-system": "Stb5 (UniProt P38699)", "PBM E-score": 0.415}
{"seq": "CCGACGCG", "test-system": "Stb5 (UniProt P38699)", "PBM E-score": 0.378}
{"seq": "AATGGTTC", "test-system": "Stb5 (UniProt P38699)", "PBM E-score": 0.00524}
{"seq": "ACGACGGC", "test-system": "Stb5 (UniProt P38699)", "PBM E-score": 0.146}
{"seq": "AGGTCGCA", "test-system": "Stb5 (UniProt P38699)", "PBM E-score": 0.0143}
{"seq": "TCGACAAA", "test-system": "Stb5 (UniProt P38699)", "PBM E-score": -0.183}
{"seq": "GGGTGCCA", "test-system": "Stb5 (UniProt P38699)", "PBM E-score": -0.012}
{"seq": "CTTCTGTA", "test-system": "Stb5 (UniProt P38699)", "PBM E-score": -0.09}
{"seq": "GGTCGGAC", "test-system": "Stb5 (UniProt P38699)", "PBM E-score": 0.369}
{"seq": "AAGCCCGA", "test-system": "Stb5 (UniProt P38699)", "PBM E-score": 0.43}
{"seq": "CGGTGCGA", "test-system": "Stb5 (UniProt P38699)", "PBM E-score": 0.384}
{"seq": "ACTCGGCA", "test-system": "Stb5 (UniProt P38699)", "PBM E-score": 0.00054}
{"seq": "CCAATGCG", "test-system": "Stb5 (UniProt P38699)", "PBM E-score": -0.208}
{"seq": "CGGCCCGC", "test-system": "Stb5 (UniProt P38699)", "PBM E-score": 0.188}
{"seq": "AAAGCCCG", "test-system": "Stb5 (UniProt P38699)", "PBM E-score": 0.457}
{"seq": "CTGGTGCC", "test-system": "Stb5 (UniProt P38699)", "PBM E-score": 0.0505}
{"seq": "GAATTAAC", "test-system": "Stb5 (UniProt P38699)", "PBM E-score": -0.0887}
{"seq": "AATTCCCG", "test-system": "Stb5 (UniProt P38699)", "PBM E-score": 0.363}
{"seq": "GACCGTCC", "test-system": "Stb5 (UniProt P38699)", "PBM E-score": 0.21}
{"seq": "ACCGACGC", "test-system": "Stb5 (UniProt P38699)", "PBM E-score": 0.306}
{"seq": "AACCGTCG", "test-system": "Stb5 (UniProt P38699)", "PBM E-score": 0.212}
{"seq": "ATGCCCGG", "test-system": "Stb5 (UniProt P38699)", "PBM E-score": 0.318}
{"seq": "AGCCGATA", "test-system": "Stb5 (UniProt P38699)", "PBM E-score": 0.0102}
{"seq": "ATTCCCGG", "test-system": "Stb5 (UniProt P38699)", "PBM E-score": 0.319}
{"seq": "AGGGCTCA", "test-system": "Stb5 (UniProt P38699)", "PBM E-score": -0.23}
{"seq": "GGTGATAC", "test-system": "Stb5 (UniProt P38699)", "PBM E-score": 0.369}
{"seq": "CGGTGCCA", "test-system": "Stb5 (UniProt P38699)", "PBM E-score": 0.414}
{"seq": "CGGGCTTC", "test-system": "Stb5 (UniProt P38699)", "PBM E-score": 0.293}
{"seq": "GGGTGCGA", "test-system": "Stb5 (UniProt P38699)", "PBM E-score": -0.0506}
{"seq": "CAGCGTGC", "test-system": "Stb5 (UniProt P38699)", "PBM E-score": 0.0885}
{"seq": "GAGCCCGA", "test-system": "Stb5 (UniProt P38699)", "PBM E-score": 0.264}
{"seq": "TAACAGTA", "test-system": "Stb5 (UniProt P38699)", "PBM E-score": -0.227}
{"seq": "CGGGCATA", "test-system": "Stb5 (UniProt P38699)", "PBM E-score": 0.419}
{"seq": "TCTGGGCA", "test-system": "Stb5 (UniProt P38699)", "PBM E-score": 0.115}
{"seq": "CGGGCCTA", "test-system": "Stb5 (UniProt P38699)", "PBM E-score": 0.437}
{"seq": "CCGACGCC", "test-system": "Stb5 (UniProt P38699)", "PBM E-score": 0.315}
{"seq": "ACGTTGTA", "test-system": "Stb5 (UniProt P38699)", "PBM E-score": -0.0486}
{"seq": "CCCCGATA", "test-system": "Stb5 (UniProt P38699)", "PBM E-score": 0.339}
{"seq": "CATCCCGG", "test-system": "Stb5 (UniProt P38699)", "PBM E-score": 0.134}
{"seq": "CTTCCCGA", "test-system": "Stb5 (UniProt P38699)", "PBM E-score": 0.0298}
{"seq": "CCCCGATC", "test-system": "Stb5 (UniProt P38699)", "PBM E-score": 0.374}
{"seq": "CGGTGCCC", "test-system": "Stb5 (UniProt P38699)", "PBM E-score": 0.27}
{"seq": "CAGCCCCG", "test-system": "Stb5 (UniProt P38699)", "PBM E-score": 0.267}
{"seq": "AACCGTCC", "test-system": "Stb5 (UniProt P38699)", "PBM E-score": -0.0366}
{"seq": "AATCCGGG", "test-system": "Stb5 (UniProt P38699)", "PBM E-score": 0.233}
{"seq": "CGGGCTTA", "test-system": "Stb5 (UniProt P38699)", "PBM E-score": 0.473}
{"seq": "TCAATCCA", "test-system": "Stb5 (UniProt P38699)", "PBM E-score": -0.0437}
{"seq": "AGCCGATC", "test-system": "Stb5 (UniProt P38699)", "PBM E-score": 0.0924}
{"seq": "CGTTTGGC", "test-system": "Stb5 (UniProt P38699)", "PBM E-score": 0.0428}
{"seq": "TTGGACAA", "test-system": "Stb5 (UniProt P38699)", "PBM E-score": -0.195}
{"seq": "GGCCGATA", "test-system": "Stb5 (UniProt P38699)", "PBM E-score": 0.266}
{"seq": "ACGACGGA", "test-system": "Stb5 (UniProt P38699)", "PBM E-score": 0.227}
{"seq": "GACTAGTC", "test-system": "Stb5 (UniProt P38699)", "PBM E-score": -0.117}
{"seq": "CTCAAATC", "test-system": "Stb5 (UniProt P38699)", "PBM E-score": -0.136}
{"seq": "CATTCCCG", "test-system": "Stb5 (UniProt P38699)", "PBM E-score": 0.203}
{"seq": "CTTCCCGC", "test-system": "Stb5 (UniProt P38699)", "PBM E-score": 0.129}
{"seq": "CACCGTCA", "test-system": "Stb5 (UniProt P38699)", "PBM E-score": 0.333}
{"seq": "CGTGATAC", "test-system": "Stb5 (UniProt P38699)", "PBM E-score": -0.0683}
{"seq": "CGGGCTCC", "test-system": "Stb5 (UniProt P38699)", "PBM E-score": 0.0609}
{"seq": "AATCCCCG", "test-system": "Stb5 (UniProt P38699)", "PBM E-score": 0.452}
{"seq": "ACCCGATC", "test-system": "Stb5 (UniProt P38699)", "PBM E-score": 0.19}
{"seq": "GCTGACCA", "test-system": "Stb5 (UniProt P38699)", "PBM E-score": -0.169}
{"seq": "CGCCGATA", "test-system": "Stb5 (UniProt P38699)", "PBM E-score": 0.36}
{"seq": "ATTGCATA", "test-system": "Stb5 (UniProt P38699)", "PBM E-score": -0.0781}

Entry source: the supplement of paper PMC3334620
